B1: RNA-binding E3 ubiquitin-protein ligase MEX3C, residues 325 to 391; numbered along this chain, Q5U5Q3 (parent)
chain: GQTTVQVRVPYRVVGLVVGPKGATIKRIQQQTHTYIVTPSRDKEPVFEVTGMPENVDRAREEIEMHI

Variants of: B1
Assay: abundance fitness (aPCA) (normalised: wild type 0, dead -1); higher = more abundant; growth selection in yeast, the domain comes from the species named
Conditions: Homo sapiens
Class membership depends on abundance fitness alone; the intervals are bottom bin (below -0.6), middle bin (-0.6 to below -0.4), top bin (-0.4 or more)

> print(dat)
   changes         cat
1     G22S  middle bin
2     I36R  bottom bin
3     F47R  bottom bin
4     T24N     top bin
5     K26L  bottom bin

-- ask Tag the class for `Q29S`
-- reply top bin

-- ask Tag the class for `P39Y`
-- reply top bin

-- ask Tag the class for `R27L`
-- reply bottom bin

-- ask Tag the class for `Q30T`
-- reply top bin

-- ask Tag the class for `A23G`
-- reply middle bin

-- ask Tag the class for `M52K`
-- reply top bin
